measurement-protocol: Cytotoxicity against mouse RAW264.7 cells assessed as reduction in cell viability incubated for 48 hrs by MTT assay
Type: cell-based
Checkbox rule: CC50 at 48 h lower than 30 µg/mL = T; CC50 at 48 h not lower than 30 µg/mL = F.

Some solved entries appear below for comparison.
* C#CCN(c1nc(-c2ccc(C)cc2)no1)C1CCCCC1 | T
* CC(=O)OC[C@H]1O[C@H](OC[C@@H](Cn2cc(CN(c3nc(-c4cccc(C)c4)no3)C3CCCCC3)nn2)OC(C)=O)C=C[C@@H]1OC(C)=O | F
* CC(=O)OC[C@H]1O[C@H](OC[C@H](Cn2cc(-c3ccc(-c4noc(NC5CCCCC5)n4)cc3)nn2)OC(C)=O)C=C[C@@H]1OC(C)=O | T
* CC(=O)OC[C@H]1O[C@H](OC[C@@H](Cn2cc(CN(c3nc(-c4ccccc4)no3)C3CCCCC3)nn2)OC(C)=O)C=C[C@@H]1OC(C)=O | T
* C#CCN(c1nc(-c2ccc(F)cc2)no1)C1CCCCC1 | T

(Q) Please indicate whether the reported CC50 at 48 h of `C#CCN(c1nc(-c2ccc([N+](=O)[O-])cc2)no1)C1CCCCC1` is strictly below 30 µg/mL.
(A) T

(Q) Entry to check: `CC(=O)OC[C@H]1O[C@H](OC[C@@H](Cn2cc(CN(c3nc(-c4ccc(Br)cc4)no3)C3CCCCC3)nn2)OC(C)=O)C=C[C@@H]1OC(C)=O`
(A) F

(Q) Entry to check: `C#CCN(c1nc(-c2ccccc2)no1)C1CCCCC1`
(A) F

---

measurement-protocol: Cytotoxicity against African green monkey Vero cells assessed as reduction in cell viability measured after 5 days by MTT assay
Assay type: cell-based
run-parameters: chlorocebus sabaeus, time 5 day
Measured CC50 at 120 h by item
Kindly format the answer as number then unit.

Worked cases, CC50 at 120 h given:
- CC(=O)OC[C@H]1O[C@H](OC[C@@H](Cn2cc(CN(c3nc(-c4ccc(C)cc4)no3)C3CCCCC3)nn2)OC(C)=O)C=C[C@@H]1OC(C)=O: 498 µM
- CC(=O)OC[C@H]1O[C@H](OC[C@@H](Cn2cc(CN(c3nc(-c4ccccc4)no3)C3CCCCC3)nn2)OC(C)=O)C=C[C@@H]1OC(C)=O: 607 µM
- COc1ccc(-c2noc(N(Cc3cn(C[C@H](CO[C@@H]4C=C[C@H](OC(C)=O)[C@@H](COC(C)=O)O4)OC(C)=O)nn3)C3CCCCC3)n2)cc1: 575 µM

Please find the next compound below.
(Q) Which CC50 at 120 h is listed for `CC(=O)OC[C@H]1O[C@H](OC[C@@H](Cn2cc(CN(c3nc(-c4ccc(C(F)(F)F)cc4)no3)C3CCCCC3)nn2)OC(C)=O)C=C[C@@H]1OC(C)=O` ?
(A) 706 µM

---

Measured selectivity ratio by item
measurement-protocol: Selectivity index, ratio of CC50 for human HepG2 cells to MIC for antimycobacterial activity against Mycobacterium tuberculosis H37Rv ATCC 27294
Format: toxicity
run-parameters: read-out: Selectivity Index
Kindly provide the number alone.

Worked cases, selectivity ratio given:
- C#CCN(c1nc(-c2ccc(Cl)cc2)no1)C1CCCCC1: 2.58
- CC(=O)OC[C@H]1O[C@H](OC[C@@H](Cn2cc(CN(c3nc(-c4ccccc4)no3)C3CCCCC3)nn2)OC(C)=O)C=C[C@@H]1OC(C)=O: 1.24
- CC(=O)OC[C@H]1O[C@H](OC[C@H](Cn2cc(COc3ccc(-c4noc(NC5CCCCC5)n4)cc3)nn2)OC(C)=O)C=C[C@@H]1OC(C)=O: 6.21
- CC(=O)OC[C@H]1O[C@H](OC[C@@H](Cn2cc(CN(c3nc(-c4ccc(C(F)(F)F)cc4)no3)C3CCCCC3)nn2)OC(C)=O)C=C[C@@H]1OC(C)=O: 1.67
- CC(=O)OC[C@H]1O[C@H](OC[C@@H](Cn2cc(CN(c3nc(-c4ccc(Br)cc4)no3)C3CCCCC3)nn2)OC(C)=O)C=C[C@@H]1OC(C)=O: 5.95
- C#CCN(c1nc(-c2ccc(Br)cc2)no1)C1CCCCC1: 3.18
- CO[C@H]1/C=C/O[C@@]2(C)Oc3c(C)c(O)c4c(O)c(c(/C=N/N5CCN(C)CC5)c(O)c4c3C2=O)NC(=O)/C(C)=C\C=C\[C@H](C)[C@H](O)[C@@H](C)[C@@H](O)[C@@H](C)[C@H](OC(C)=O)[C@@H]1C: 1410
- CC(=O)OC[C@H]1O[C@H](OC[C@@H](Cn2cc(CN(c3nc(-c4ccc(C)cc4)no3)C3CCCCC3)nn2)OC(C)=O)C=C[C@@H]1OC(C)=O: 2.3

Please find the next compound below.
(Q) Which selectivity ratio is listed for `C#CCN(c1nc(-c2ccc(OC)cc2)no1)C1CCCCC1` ?
(A) 1.13

---

measurement-protocol: Cytotoxicity against human HepG2 cells assessed as reduction in cell viability incubated for 48 hrs by MTT assay
Assay type: cell-based
Checkbox rule: CC50 at 48 h lower than 80 µg/mL = Condition met; CC50 at 48 h not lower than 80 µg/mL = Condition not met.

(Q) Please indicate whether the reported CC50 at 48 h of CO[C@H]1/C=C/O[C@@]2(C)Oc3c(C)c(O)c4c(O)c(c(/C=N/N5CCN(C)CC5)c(O)c4c3C2=O)NC(=O)/C(C)=C\C=C\[C@H](C)[C@H](O)[C@@H](C)[C@@H](O)[C@@H](C)[C@H](OC(C)=O)[C@@H]1C [RIFAMPIN] is strictly below 80 µg/mL.
(A) Condition not met

---

Measured selectivity ratio by item
measurement-protocol: Selectivity index, ratio of CC50 for mouse RAW264.7 cells to MIC for antimycobacterial activity against Mycobacterium tuberculosis H37Rv ATCC 27294
Type: toxicity
run-parameters: read-out: Selectivity Index
Kindly provide the number alone.

Worked cases, selectivity ratio given:
• C#CCOc1ccc(-c2noc(N(CC#C)C3CCCCC3)n2)cc1 = 1.57
• CO[C@H]1/C=C/O[C@@]2(C)Oc3c(C)c(O)c4c(O)c(c(/C=N/N5CCN(C)CC5)c(O)c4c3C2=O)NC(=O)/C(C)=C\C=C\[C@H](C)[C@H](O)[C@@H](C)[C@@H](O)[C@@H](C)[C@H](OC(C)=O)[C@@H]1C [RIFAMPIN] = 643
• CC(=O)OC[C@H]1O[C@H](OC[C@@H](Cn2cc(CN(c3nc(-c4ccccc4)no3)C3CCCCC3)nn2)OC(C)=O)C=C[C@@H]1OC(C)=O = 1.78
• C#CCOc1ccc(-c2noc(NC3CCCCC3)n2)cc1 = 1.29

(Q) Which selectivity ratio is listed for `C#CCN(c1nc(-c2ccc(OC)cc2)no1)C1CCCCC1` ?
(A) 0.46

---

measurement-protocol: Cytotoxicity against human HepG2 cells assessed as reduction in cell viability incubated for 48 hrs by MTT assay
Format: cell-based
measured-property: CC50 at 48 h (µg/mL)
Provide the reading as a plain figure in µg/mL.

Worked cases, CC50 at 48 h given:
* C#CCN(c1nc(-c2ccc(C#C)cc2)no1)C1CCCCC1 | 27.9
* C#CCN(c1nc(-c2ccccc2)no1)C1CCCCC1 | 109
* C#CCN(c1nc(-c2cccc(Br)c2)no1)C1CCCCC1 | 53.5

Please find the next compound below.
(Q) Which CC50 at 48 h is listed for `CC(=O)OC[C@H]1O[C@H](OC[C@@H](Cn2cc(CN(c3nc(-c4ccc(C)cc4)no3)C3CCCCC3)nn2)OC(C)=O)C=C[C@@H]1OC(C)=O` ?
(A) 36.8

---

Measured selectivity ratio by item
measurement-protocol: Selectivity index, ratio of CC50 for human HepG2 cells to MIC for antimycobacterial activity against Mycobacterium tuberculosis H37Rv ATCC 27294
Format: toxicity
run-parameters: read-out: Selectivity Index

Worked cases, selectivity ratio given:
• CC(=O)OC[C@H]1O[C@H](OC[C@H](Cn2cc(COc3ccc(-c4noc(C)n4)cc3)nn2)OC(C)=O)C=C[C@@H]1OC(C)=O = < 0.58
• C#CCN(c1nc(-c2ccc([N+](=O)[O-])cc2)no1)C1CCCCC1 = < 0.68
• C#CCN(c1nc(-c2ccc(F)cc2)no1)C1CCCCC1 = 0.64
• C#CCOc1ccc(-c2noc(NC3CCCCC3)n2)cc1 = 3.7

Please find the next compound below.
(Q) Which selectivity ratio is listed for `CCCCCCCCCCc1cn(C[C@@H](CO[C@@H]2C=C[C@H](OC(C)=O)[C@@H](COC(C)=O)O2)OC(C)=O)nn1` ?
(A) 0.92

---

measurement-protocol: Selectivity index, ratio of CC50 for mouse RAW264.7 cells to MIC for antimycobacterial activity against Mycobacterium tuberculosis H37Rv ATCC 27294
Assay type: toxicity
run-parameters: read-out: Selectivity Index
Measured selectivity ratio by item

Worked cases, selectivity ratio given:
- CC(=O)OC[C@H]1O[C@H](OC[C@@H](Cn2cc(CN(c3nc(-c4ccc(-c5cn(C[C@H](CO[C@@H]6C=C[C@H](OC(C)=O)[C@@H](COC(C)=O)O6)OC(C)=O)nn5)cc4)no3)C3CCCCC3)nn2)OC(C)=O)C=C[C@@H]1OC(C)=O: < 1.82
- CC(=O)OC[C@H]1O[C@H](OC[C@@H](Cn2cc(CN(c3nc(-c4cccc([N+](=O)[O-])c4)no3)C3CCCCC3)nn2)OC(C)=O)C=C[C@@H]1OC(C)=O: < 1.56
- C#CCN(c1nc(-c2cccc(C)c2)no1)C1CCCCC1: 0.8

(Q) Which selectivity ratio is listed for `CC(=O)OC[C@H]1O[C@H](OC[C@@H](CN=[N+]=[N-])OC(C)=O)C=C[C@@H]1OC(C)=O` ?
(A) < 1.66

Hey, just so you know, these numbers are from ChEMBL document CHEMBL4842319.
